Before we begin, note that these pIC50 values for PIK3CA (human) (UniProt P42336) originate from several publications.
In textbook form, pIC50 equals minus log to base ten of the concentration in mol/L.

PIK3CA (human) (UniProt P42336) pIC50 of Cn1cc(/C=C2\Oc3ccc(NC(=O)Nc4cccnc4)cc3C2=O)c2c(N3CCOCC3)ccnc21 is 6.56

GET /values?item= COc1ncc(-c2cc(OCC3CCOC3)c3ncnc(C)c3c2)cc1NS(=O)(=O)c1ccc(F)cc1F (stereo not shown) &system= PIK3CA (human) (UniProt P42336) returns pIC50: 9.00

With PIK3CA (human) (UniProt P42336) as the test system, Nc1ncc(-c2cc(S(=O)(=O)c3ccccc3)cc(N3CCOCC3)n2)s1 showed pIC50 of 6.30

====

Multi-source literature compilation: pIC50 on PIK3CA (human) (UniProt P42336).
pIC50: −log10 of the molar value.

pIC50 measured on Cc1nc2ccc(-c3ccc4c(c3)CN(C(=O)N3CCC5CCCCC5C3)CCO4)cc2[nH]1 (stereo not shown) = 6.30 to 6.70

pIC50 reported for this compound Cc1cccc2cc([C@H](C)Nc3ncnc4[nH]nc(Cl)c34)n(C3CC3)c(=O)c12 : < 5.00

Recorded result, Cc1nc2ccc(-c3ccc4c(c3)CN(C(=O)N3CCCC(O)C3)CCO4)cc2[nH]1 (stereo not shown) , pIC50: 6.00 to 6.30

Item: COc1cccc(-c2ccnc3c2c(/C=C2\Oc4cc(O)cc(O)c4C2=O)cn3C)c1 | pIC50: 7.49

====

Please find below pIC50 data on PIK3CA (human) compiled from the literature.
pIC50: −log10 of the molar value.

Assay PIK3CA (human), sample COC(=O)Nc1nc2ccc(-c3ccc4c(c3)CN(C(=O)N3C5CCC3CC(=O)C5)CCO4)cc2[nH]1 , pIC50 read: 6.30 to 6.70

Sample CC(C)N1CCC(n2cnc3ccc(-c4cnc(Cl)c(NS(=O)(=O)c5ccccc5)c4)cc3c2=O)CC1 , system: PIK3CA (human). Its pIC50 is > 7.00

Sample Nc1ncc(-c2nc(N3CCOCC3)c3nc(N4CCN(C(=O)Cn5ccnc5)CC4)n(CC4CC4)c3n2)cn1 , system: PIK3CA (human). Its pIC50 is > 8.00

Summary: Cc1noc(C)c1-c1nc(Oc2ccc3[nH]ccc3c2)c2cnn(C)c2n1 , PIK3CA (human), pIC50 = 6.24

pIC50 of CC(=O)Nc1ccc(Oc2nc(-c3ccc(O)cc3)nc3c2cnn3C)cc1 , assay on PIK3CA (human), is 6.58

// pIC50 (PIK3CA (human)) for Nc1nc2cc(-c3ccc4ncc(N5CCC(N)CC5)nc4c3)ccc2o1 = > 7.00

Kindly note: PIK3CA (human), Cc1nc2ccc(-c3ccc4c(c3)CN(C(=O)N3CCCC3c3ccccc3)CCO4)cc2[nH]1 (centres unmarked) , pIC50 value reported: 6.00 to 6.30

Measured pIC50 (PIK3CA (human)), entry COc1ncc(-c2cc(O[C@H]3CCOC3)c3ncnc(C)c3c2)cc1NS(=O)(=O)c1ccc(F)cc1F : 9.14

====

Compiled pIC50 measurements on PIK3CA (human) (UniProt P42336) taken from the literature.
pIC50: −log10 of the molar value.

Per the records, this compound ( Nc1nc2ccc(-c3ccc4ncc(C(=O)N5CCOCC5)n4c3)cc2[nH]1 ) has pIC50 equal to > 6.00

For reference, reported pIC50 for Nc1ncc(-c2nc(N3CCOCC3)c3ncc(-c4cccc(NC(=O)CO)c4)cc3n2)cn1 stands at > 7.30

The compound C[C@H](Nc1ncnc2[nH]cnc12)c1nc(CCN2CCOCC2)c2ccccc2c1F showed pIC50 equal to < 5.00

What the record says about Cc1cccc2cc(Cn3nc(-c4cccc(O)c4)c4c(N)ncnc43)n(C3CCC3)c(=O)c12 : pIC50 is < 5.00

pIC50 recorded for this compound, O=C(C1CCOC1)N1CC[C@H](Oc2cc(-n3c(C(F)F)nc4ccccc43)nc(N3CCOCC3)n2)C1 (some centres unmarked) , is 5.85

Sure, the documented pIC50 for O=c1cc(Oc2cccc(-c3ccc(N4CCNCC4)nc3)c2)c2ccccc2[nH]1 is < 5.00

Just so you know, measured pIC50 for CCC1CCCN(C(=O)N2CCOc3ccc(-c4ccc5nc(C)[nH]c5c4)cc3C2)C1 (centres unmarked) came out at 6.30 to 6.70

# pIC50 (compound: CCOC(=O)Nc1ccc2c(c1)C(=O)/C(=C/c1cn(C)c3nccc(N4CCC(C(=O)N(C)C)CC4)c13)O2 ) is 5.70

CC(C)Oc1ccc(-c2cnc(N)c(C(=O)N[C@@H](C)c3cc4cccc(Cl)c4c(=O)n3-c3ccccc3)n2)cn1 yielded pIC50 of < 5.00

Noted for Nc1noc2c(-c3ccc4ncc(C(=O)N5CCOCC5)n4c3)cccc12 : its pIC50 reads < 5.00

Looking up CN1CCC(CNc2cc(-n3c(C(F)F)nc4ccccc43)nc(N3CCOCC3)n2)CC1 , I found its pIC50 recorded as < 5.52

// field: pIC50; key: O=S(=O)(CCCF)Nc1cccc(-c2ccc3nc(-c4ccc(NCCCO)nc4)nc(N4CCOCC4)c3n2)c1F ; value = 6.00 to 7.00

pIC50 reading for CN(C(=O)C1CCN(c2ccnc3c2c(C=C2Oc4ccc(NC(=O)Nc5cccnc5)cc4C2=O)cn3C)CC1)C1CCS(=O)(=O)C1 (centres unmarked) : < 5.00

get_value(item= Cc1ccccc1-n1c(C(C)Nc2ncnc3[nH]cnc23)cc2cccc(C)c2c1=O (centres unmarked) , readout=pIC50) returns < 5.00

In plain terms, N#Cc1ccc(-c2nnc3cnc4ccc(-c5ccc6nc(N)sc6c5)cc4n23)nc1 has a documented pIC50 of > 7.00

# pIC50 of Nc1ncc(-c2nc(N3CCOCC3)c3ncc(-c4cccc(NC(=O)c5cnccc5C(F)(F)F)c4)cc3n2)cn1 = > 7.30

Just so you know, measured pIC50 for FC(F)c1nc2ccccc2n1-c1cc(NC[C@H]2CC[C@H](N3CCOCC3)CC2)nc(N2CCOCC2)n1 came out at < 5.00

Record Nc1cccc(Oc2cc(=O)[nH]c3cc(Cl)ccc23)c1 . Reported pIC50: 5.17

GET /value?item= COCCN1CCN(C(=O)c2ccc(-c3ccnc4c3c(/C=C3\Oc5cccc(O)c5C3=O)cn4C)cc2)CC1 &field=pIC50 returns 6.96

Just so you know, measured pIC50 for Cc1cc(-c2nc(N3CCOCC3)c3nc(-c4cccc(NS(=O)(=O)CCCF)c4F)ccc3n2)cnc1N came out at 6.00 to 7.00

COc1ncc(-c2cc(OC(C)C)c3nc(N)nc(C)c3c2)cc1NS(=O)(=O)c1ccc(F)cc1F yielded pIC50 of 9.10

Sample CCn1ccc2c(N3CCOCC3)nc(-c3ccc(NC(=O)Nc4ccc(C(=O)N5CCC(N6CCCC6)CC5)cc4)cc3)nc21 ; pIC50 observed: 8.68

For reference, reported pIC50 for C[C@H](Nc1ncnc2[nH]cnc12)c1cc2cccc(Cl)c2c(=O)n1C1CC1 stands at > 6.00

response.value for COc1ncc(-c2cc(OC3CCN(C)CC3)c3nc(N)nc(C)c3c2)cc1NS(=O)(=O)c1ccc(F)cc1F (field: pIC50) = 8.26

Sure, the documented pIC50 for COc1ncc(-c2ccc3nccc(-n4cncn4)c3c2)cc1NS(=O)(=O)c1ccc(F)cc1 is 8.92

Data point: NC(=O)c1cccc(Nc2nc(-c3cccc(O)c3)nc3c2cnn3C2CCNCC2)c1 ; pIC50 = < 5.00

// field: pIC50; key: C[C@H](Nc1ncnc2cccnc12)c1cc2ccc(F)cc2c(=O)n1-c1ccccc1 ; value = 5.00 to 6.00

get_value(item= Cc1cccc2cc(Cn3nc(-c4ccn[nH]4)c4c(N)ncnc43)n(-c3ccccc3F)c(=O)c12 , readout=pIC50) returns < 5.00

# pIC50 (compound: COc1ncc(-c2ccc3ncc(C(=O)N4CCOCC4)n3c2)cc1N ) is > 5.00

So for Nc1ncc(-c2nc(N3CCOCC3)c3ncc(-c4cccc(C(=O)NC5CC5)c4)cc3n2)cn1 , the logged pIC50 turned out to be > 7.30

Measured pIC50, Fc1ccccc1N1CCC(CNc2nc(N3CCOCC3)cc(-n3c(C(F)F)nc4ccccc43)n2)CC1 : 5.27

Looking up Cc1ccccc1-n1c(Cn2nc(I)c3c(N)ncnc32)cc2cccc(F)c2c1=O , I see its pIC50 listed as < 5.00

====

pIC50: −log10 of the molar value.
Literature roundup of PIK3CA (human) (UniProt P42336) data, read-out pIC50.

The reported PIK3CA (human) (UniProt P42336) pIC50 of Cc1cccc2cc(Cn3nc(C#C[C@@H](C)O)c4c(N)ncnc43)n(-c3ccccc3O)c(=O)c12 is < 5.00

Observed pIC50 on PIK3CA (human) (UniProt P42336), entry Cc1cccc2cc([C@H](C)Nc3ncnc4[nH]c(O)nc34)n(-c3ccccc3)c(=O)c12 , equals < 5.00

The compound CN(C)S(=O)(=O)c1cc(-c2ccc3nccc(-c4ccncc4)c3n2)cnc1N , when measured on PIK3CA (human) (UniProt P42336), yielded pIC50 of 8.52

Field pIC50 (system: PIK3CA (human) (UniProt P42336)) for entry CC(C)n1c(N2CCC(C(=O)NO)CC2)nc2c(N3CCOCC3)nc(-c3cnc(N)nc3)nc21 = 7.00 to 8.00

Fill in: PIK3CA (human) (UniProt P42336) pIC50 for C[C@H](Nc1ncnc2[nH]cnc12)c1cc2cccc(Cl)c2c(C(=O)N2CCC(F)(F)C2)n1 = < 5.00

Hey, PIK3CA (human) (UniProt P42336) data for CC(C)NCCOc1ncc(-c2cc3c(cc2F)ncc2c3[C@]3(C[C@H](OCc4ccccc4)C3)C(=O)N2C)cc1NS(C)(=O)=O : pIC50 came out at 7.64

Item O=C1CCN(C(=O)N2CCOc3ccc(-c4ccc(-c5ncc[nH]5)cc4)cc3C2)C(c2ccc(F)cc2)C1 (stereo not shown) ; assay system PIK3CA (human) (UniProt P42336); pIC50 reported as ≥ 7.12
